System: Inhibin beta A chain (activin A)
Experiment: INHBA (activin A) binders on microarrays, primary screen, biochemical, small-molecule microarray, 635 nm fluorescence scan (AID 1107);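 also: mouse activin A protein probed at 4.33 µg/mL on printed slides; score merges bound-protein fluorescence near 667 nm with spot signal-to-noise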
Details: small-molecule microarray binding, higher = more signal
If the reported composite z-score equals or exceeds 0.5, assign yes (1). If not, assign no (0).

Exercise: Please indicate if the recorded composite z-score for COc1cc2c(cc1O)C(C1CC1)N(Cc1ccc([N+](=O)[O-])o1)CC2 (stereo not given) meets or exceeds 0.5.
Key: yes (1)

Exercise: API: above_or_equal(metric=composite z-score, cutoff=0.5) for item C=C(C(=O)CC[C@@H](OC(C)=O)c1cccc(OCCO)c1)C(C)C
Key: yes (1)

Exercise: Check if composite z-score >= 0.5 (inclusive). Item: COc1ccccc1CN1C(=O)c2ccccc2[C@](Cc2ccccc2I)(C(=O)NCCCN(C)C)[C@@H]1c1ccc(CO)cc1
Key: yes (1)

Exercise: Test whether the compound CC(=O)c1ccc(C(O)C2C=CC3C(=O)N(C)C(=O)C3N2NC(=O)OC(C)(C)C)cc1 (stereo not given) records composite z-score of 0.5 or higher.
Key: no (0)

Exercise: Tell me whether composite z-score is at least 0.5 here: COCCOC(=O)N1C(=O)[C@@]2(c3ccccc31)[C@H](C(=O)N1CCCCCCC1)[C@H]1C(=O)O[C@H](c3ccccc3)[C@H](c3ccccc3)N1[C@@H]2c1ccc(O)cc1
Key: yes (1)

----------
Test system: XIP peptide (Xip251-270)
Experiment: small-molecule binders of XIP peptide, primary screen, biochemical, small-molecule microarray, fluorescence 635/667 nm, 0.5 µg/mL protein (AID 1183)
Conditions: small-molecule microarray binding, fluorescence 635 nm; higher = more signal
Entries annotated with measured composite z-score
Please give the numeric answer without any surrounding text.

[
  {
    "compound": "COc1ccc(CC[C@H](O)c2cccc(OCC(=O)OC(C)(C)C)c2)cc1",
    "experimental.target": "XIP peptide (Xip251-270)",
    "composite z-score": 0.662
  }
]

Exercise: GET /values?readout=composite z-score&item= COC(=O)C1(CC(C)C)C=C2C(=C(C(C)C)C(=O)C2C)CN1 (centres undefined)
Key: 0.172

Exercise: Given the compound CC(C)CNC(=O)[C@@H]1c2ccccc2C(=O)N(C2Cc3ccccc3C2)[C@H]1c1ccc(CO)cc1 , what is its reported composite z-score?
Key: 0.509

Exercise: Recorded composite z-score for CC(C)C[C@H]1NC(=O)[C@H](Cc2ccccc2)NC(=O)[C@@]23C(=O)N[C@@H](Cc4ccccc4)C2[C@H](C)[C@@]2(C)O[C@H]2C3/C=C/C/C=C\CNC1=O (some centres undefined) , please?
Key: 0.718

----------
Assay: E. coli growth modulation, two-sided OD650, primary screen, E. coli filamentation project, strain DRC41, 24 h (AID 1093);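 also: MC1000 strain lacking acrAB efflux and sulA so SOS filamentation is blocked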
Details: OD650, 24 h, higher = more signal, called active from +8 up or from −8 down
quantity.measured: z-score
Write the value as a bare number.

See these solved cases before continuing.
[
  {
    "compound": "CC(C)[Si](C#CCCCC#N)(O[C@H](c1ccccc1)c1cn([C@H](C)c2ccccc2)nn1)C(C)C",
    "reported": 0.674
  },
  {
    "compound": "C=CC[C@@]12N=C(c3ccc(OCCCO)cc3)O[C@@H]1c1ccccc1N(Cc1ccccc1)C2=O",
    "reported": 1.12
  },
  {
    "compound": "CCCCC(O)C1C=CC2C(=O)NC(=O)C2N1Nc1ccccn1 (stereo not drawn)",
    "reported": -1.73
  }
]

Exercise: Look up z-score for this compound: COCCOC(=O)N1C(=O)[C@@]2(c3cc(C#CC4(O)CCCCCC4)ccc31)[C@H](C(=O)N1CCc3cc(OC)c(OC)cc3C1)[C@H]1C(=O)O[C@H](c3ccccc3)[C@H](c3ccccc3)N1[C@@H]2c1ccc(O)cc1
Key: 1.55

Exercise: May I ask what z-score has been recorded for [N-]=[N+]=NCc1ccccc1C[C@]1(C(=O)O)COC(c2ccc(OCCCO)cc2)=N1 ?
Key: 0.398

Exercise: I have this compound here, COCC(=C=CC[C@@H](O)c1ccc(OCCO)cc1)C[C@@H](O)COCc1ccccc1 , and I need its recorded z-score.
Key: 1.55

Exercise: Please give the measured z-score for this compound: CN1C=C(C(=O)OCCS(C)(=O)=O)C(C(=O)OCCS(C)(=O)=O)=CC(CCCO)=CC1c1ccc(CN2CCCC2)cc1 (stereo not drawn)
Key: 0.0324

Exercise: Look at this compound and give its reported z-score. Cc1ccccc1C(O)C1C=CC2C(=O)N(c3ccccc3)C(=O)C2N1Nc1ccccc1F (stereo not drawn)
Key: -0.927
